Cited source for all entries: patent US20210196796A1

Recorded Relative Proliferation Fold Change NKL 1:2 by entry
- study system: T1, orthogonal hCD122 receptor (hoRb), hCD122 with H133D and Y134F (human, UniProt P14784 27-550); note: reference of the scale not given here
- T1 sequence: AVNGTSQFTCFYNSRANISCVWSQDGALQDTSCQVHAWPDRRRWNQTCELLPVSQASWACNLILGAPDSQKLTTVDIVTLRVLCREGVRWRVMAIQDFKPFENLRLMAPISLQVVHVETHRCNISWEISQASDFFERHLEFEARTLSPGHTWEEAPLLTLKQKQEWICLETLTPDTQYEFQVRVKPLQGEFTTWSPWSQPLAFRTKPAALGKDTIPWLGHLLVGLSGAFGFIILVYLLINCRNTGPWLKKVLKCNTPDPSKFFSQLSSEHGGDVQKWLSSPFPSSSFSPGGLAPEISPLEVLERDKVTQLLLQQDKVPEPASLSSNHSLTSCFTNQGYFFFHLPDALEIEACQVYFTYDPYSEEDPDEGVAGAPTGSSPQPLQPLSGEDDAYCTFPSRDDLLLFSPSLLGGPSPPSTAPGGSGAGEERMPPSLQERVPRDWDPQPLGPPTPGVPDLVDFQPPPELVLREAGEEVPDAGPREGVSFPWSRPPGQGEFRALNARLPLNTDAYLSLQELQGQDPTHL
- assay overview: cell-based or functional assay
result type: Relative Proliferation Fold Change NKL 1:2 (fold)

- binder: "K97Q, SQVLKA (ligand) APTSSSTKKTQLQLSQLLVLLKAILNGINNYKNPKLTRMLTFKFYMPKKATELKHLQCLEEELKPLEEVLNLAQSKNFHLRPRDLISNINVIVLELQGSETTFMCEYADETATIVEFLNRWITFCQSIISTLT"
  value units: "fold"
  value reported: 3.29
- binder: "SQVLMA (ligand) APTSSSTKKTQLQLSQLLVLLMAILNGINNYKNPKLTRMLTFKFYMPKKATELKHLQCLEEELKPLEEVLNLAQSKNFHLRPRDLISNINVIVLELKGSETTFMCEYADETATIVEFLNRWITFCQSIISTLT"
  value units: "fold"
  value reported: 1.4
- binder: "SQVLDA (ligand) APTSSSTKKTQLQLSQLLVLLDAILNGINNYKNPKLTRMLTFKFYMPKKATELKHLQCLEEELKPLEEVLNLAQSKNFHLRPRDLISNINVIVLELKGSETTFMCEYADETATIVEFLNRWITFCQSIISTLT"
  value units: "fold"
  value reported: 2.55
- binder: "L14M, SQVLKA (ligand) APTSSSTKKTQLQMSQLLVLLKAILNGINNYKNPKLTRMLTFKFYMPKKATELKHLQCLEEELKPLEEVLNLAQSKNFHLRPRDLISNINVIVLELKGSETTFMCEYADETATIVEFLNRWITFCQSIISTLT"
  value units: "fold"
  value reported: 3.76
